- STUDY_TARGET: RecQ-like DNA helicase BLM (Homo sapiens, UniProt P54132)
- Sequence (P54132 whole entry, the tested form may be a part): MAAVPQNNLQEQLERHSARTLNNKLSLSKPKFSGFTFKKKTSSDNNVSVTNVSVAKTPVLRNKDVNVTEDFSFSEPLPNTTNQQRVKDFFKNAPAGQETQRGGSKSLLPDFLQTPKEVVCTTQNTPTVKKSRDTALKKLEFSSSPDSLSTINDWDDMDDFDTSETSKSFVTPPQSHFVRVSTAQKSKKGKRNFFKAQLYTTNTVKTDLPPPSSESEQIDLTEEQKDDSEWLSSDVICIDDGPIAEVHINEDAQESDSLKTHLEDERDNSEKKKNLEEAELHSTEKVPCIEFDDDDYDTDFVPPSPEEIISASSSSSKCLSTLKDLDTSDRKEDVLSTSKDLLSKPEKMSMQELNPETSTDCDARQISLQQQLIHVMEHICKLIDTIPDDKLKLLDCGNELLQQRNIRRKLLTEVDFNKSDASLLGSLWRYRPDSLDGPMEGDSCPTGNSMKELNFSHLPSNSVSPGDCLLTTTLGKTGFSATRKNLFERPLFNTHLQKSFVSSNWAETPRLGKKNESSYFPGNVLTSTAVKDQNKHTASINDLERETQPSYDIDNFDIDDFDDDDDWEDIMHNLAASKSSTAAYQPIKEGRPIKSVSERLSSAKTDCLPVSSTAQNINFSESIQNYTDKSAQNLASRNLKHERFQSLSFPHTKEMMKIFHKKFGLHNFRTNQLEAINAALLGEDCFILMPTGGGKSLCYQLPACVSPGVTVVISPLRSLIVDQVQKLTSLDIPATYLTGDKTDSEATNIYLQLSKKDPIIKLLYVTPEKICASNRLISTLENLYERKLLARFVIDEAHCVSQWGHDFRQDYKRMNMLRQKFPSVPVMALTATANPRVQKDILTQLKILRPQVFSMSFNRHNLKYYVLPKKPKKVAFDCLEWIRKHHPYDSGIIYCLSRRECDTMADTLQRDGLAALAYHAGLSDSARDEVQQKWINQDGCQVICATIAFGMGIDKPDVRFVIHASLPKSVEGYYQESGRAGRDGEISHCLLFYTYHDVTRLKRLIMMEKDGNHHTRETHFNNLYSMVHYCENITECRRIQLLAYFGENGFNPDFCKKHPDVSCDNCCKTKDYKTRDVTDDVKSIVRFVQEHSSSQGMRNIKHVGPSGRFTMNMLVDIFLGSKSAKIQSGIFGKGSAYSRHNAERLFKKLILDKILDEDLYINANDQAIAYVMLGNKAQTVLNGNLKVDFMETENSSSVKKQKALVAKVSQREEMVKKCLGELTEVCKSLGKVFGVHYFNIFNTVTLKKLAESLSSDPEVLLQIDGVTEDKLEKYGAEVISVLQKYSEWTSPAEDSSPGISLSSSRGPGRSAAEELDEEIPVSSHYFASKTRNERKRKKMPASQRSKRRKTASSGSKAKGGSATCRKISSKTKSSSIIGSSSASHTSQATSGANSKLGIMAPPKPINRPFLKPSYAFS
- PROTOCOL_DETAILS: Inhibition of His-tagged BLM (642 to 1296 residues) (unknown origin) expressed in Escherichia coli BL21 (DE3) cells assessed as reduction in DNA unwinding activity at <10 uM using 5'-biotin-labeled forked DNA as substrate preincubated for 1 hr followed by substrate addition and measured after 1 hr by electrophoretic mobility shift assay
Calls of active or inactive are those of the source. The rule behind the calls is not given here.
Your answer must be one of the following: active, inactive

MOLECULE | STUDY_TARGET | GROUP
CCN(CC)CCNc1cc2nc3n(c(=O)c2cc1F)CC/C3=C\c1cccs1 | RecQ-like DNA helicase BLM (Homo sapiens, UniProt P54132) | inactive
CCN(CC)CCCNc1cc2nc(/C=C/c3ccc(C(C)C)cc3)[nH]c(=O)c2cc1F | RecQ-like DNA helicase BLM (Homo sapiens, UniProt P54132) | active
CCN(CC)CCNc1cc2nc3n(c(=O)c2cc1F)CCC3Cc1ccc(C(C)C)cc1O (centres undefined) | RecQ-like DNA helicase BLM (Homo sapiens, UniProt P54132) | active
CCN(CC)CCNc1cc2nc3n(c(=O)c2cc1F)CCC3Cc1ccc(CC(C)C)cc1 (centres undefined) | RecQ-like DNA helicase BLM (Homo sapiens, UniProt P54132) | active
CCN(CC)CCCNc1c2c(nc3ccccc13)/C(=C/c1ccc(CC(C)C)cc1)CC2 | RecQ-like DNA helicase BLM (Homo sapiens, UniProt P54132) | active
CCN(CC)CCNc1cc2nc3n(c(=O)c2cc1F)CC/C3=C\c1ccc(O)c(O)c1 | RecQ-like DNA helicase BLM (Homo sapiens, UniProt P54132) | active
CCOCCNc1cc2nc3n(c(=O)c2cc1F)CC/C3=C\c1ccc(C(C)C)cc1 | RecQ-like DNA helicase BLM (Homo sapiens, UniProt P54132) | active
CCN(CC)CCNc1cc2nc3n(c(=O)c2cc1F)CC/C3=C\c1ccc(N(C)C)cc1 | RecQ-like DNA helicase BLM (Homo sapiens, UniProt P54132) | active

Now let's try a different one.
Any idea what this test logged for CC(C)CCNc1cc2nc3n(c(=O)c2cc1F)CC/C3=C\c1ccc(C(C)C)cc1 ?
inactive

====

- STUDY_TARGET: RecQ-like DNA helicase BLM (Homo sapiens)
- PROTOCOL_DETAILS: Inhibition of His-tagged BLM (642 to 1296 residues) (unknown origin) expressed in Escherichia coli BL21 (DE3) cells assessed as reduction in DNA unwinding activity at <10 uM using 5'-biotin-labeled forked DNA as substrate preincubated for 1 hr followed by substrate addition and measured after 1 hr by electrophoretic mobility shift assay
Active and inactive are the calls of the source. The rule behind the calls is not given here.
Answer with one of the outcomes given here: active, inactive

Use these answered entries as a reference point.
COMPOUND | GROUP
CC(=O)NCCNc1cc2nc3n(c(=O)c2cc1F)CC/C3=C\c1ccc(C(C)C)cc1 | active
CCN(CC)CCNc1cc2nc3n(c(=O)c2cc1F)CCC3Cc1ccc(C(C)C)cc1 (stereo not given) | active
CCc1ccc(/C=C2\CCc3c2nc2ccccc2c3NCCCN(CC)CC)cc1 | active
CCN(CC)CCNc1cc2nc3n(c(=O)c2cc1F)CC/C3=C\c1ccccc1 | inactive

Per the assay record, what outcome was assigned to CCN(CC)CCNc1cc2nc3n(c(=O)c2cc1F)CCC/C3=C\c1ccc(C(C)C)cc1 ?
active
